Recorded values, source the NIST ThermoML archive (doi:10.1021/je800316b).

conditions: 373.15 K; 10000 kPa; Liquid
// mass density lookup, one value per entry

[
  {
    "compound": "CCOS(=O)(=O)[O-].CCn1cc[n+](C)c1 [1-ethyl-3-methylimidazolium ethyl sulfate]",
    "mass density / kg/m3": 1195.2
  },
  {
    "compound": "CCn1cc[n+](CC)c1.O=S(=O)([N-]S(=O)(=O)C(F)(F)F)C(F)(F)F [1,3-diethylimidazolium bis[(trifluoromethyl)sulfonyl]imide]",
    "mass density / kg/m3": 1394.4
  },
  {
    "compound": "CCCCCCCCCCn1cc[n+](C)c1.O=S(=O)([N-]S(=O)(=O)C(F)(F)F)C(F)(F)F",
    "mass density / kg/m3": 1219.6
  },
  {
    "compound": "CCn1cc[n+](C)c1.COS(=O)(=O)[O-] [1-ethyl-3-methylimidazolium methylsulfate]",
    "mass density / kg/m3": 1236.4
  }
]
